This section presents binders with their documented pKd values.
Target: T1, human factor X (human, UniProt P00742 41-179; P00742 183-488)
T1 construct: Zymogen used as analyte in SPR; also called FX; Human FX (MW ~58 KDa)
T1 sequence (P00742 41-179, chain 1 of 2): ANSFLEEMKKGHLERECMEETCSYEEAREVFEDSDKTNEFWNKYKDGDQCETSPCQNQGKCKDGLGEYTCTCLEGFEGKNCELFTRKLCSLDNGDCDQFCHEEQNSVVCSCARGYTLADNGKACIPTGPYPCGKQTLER
T1 sequence (P00742 183-488, chain 2 of 2): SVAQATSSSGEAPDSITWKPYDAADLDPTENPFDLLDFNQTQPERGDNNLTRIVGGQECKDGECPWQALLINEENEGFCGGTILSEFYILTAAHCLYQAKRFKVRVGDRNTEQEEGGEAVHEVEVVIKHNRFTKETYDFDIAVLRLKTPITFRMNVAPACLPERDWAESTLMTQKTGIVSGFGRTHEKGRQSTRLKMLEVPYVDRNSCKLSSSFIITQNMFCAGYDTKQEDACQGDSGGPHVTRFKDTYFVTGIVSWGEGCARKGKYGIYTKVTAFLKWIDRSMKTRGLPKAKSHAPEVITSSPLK
Test: SPR, IgG captured on anti-human IgG Fc, human FX as analyte
Method: SPR was used to determine the binding affinity (KD) to FIX or FX respectively, the kinetic constants on-rate (kₒₙ) and off-rate (koff). Analyses was performed using a Biacore 8K (GE Healthcare) system. Monospecific antibodies (referred as ligand) which had been purified on Protein A were captured onto the anti-human IgG Fc CM4 surface at approximately 2 μg/ml. The ligands were injected for 60 seconds at 10 μl/min in all the active channels of all 8 flow channels. […]
Entry type: numeric. Quantity: pKd, the -log10 of concentration in molar units.

[[record]]
binder = "TINA-0215.0128 (antibody, V domains shown, Monospecific IgG4PE) VH: QVQLVQSGAEVKKPGASVKVSCKASRYSFTSYYMHWVRQAPGQGLEWMGIINPKSGSTSYAQKFQGRVTMTRDTSTSTVYMELSSLRSEDTAVYYCARDGYGSSSRCLQLWGQGTLVTVSS VL: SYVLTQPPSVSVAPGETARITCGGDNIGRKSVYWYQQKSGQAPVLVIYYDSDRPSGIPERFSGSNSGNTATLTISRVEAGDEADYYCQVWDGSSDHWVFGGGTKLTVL"
result_number = 5.94


// below: pKd requested for another binder
Task item: Look up pKd: TINA-0202.0128 (antibody, V domains shown, Monospecific IgG4PE) VH: QVQLIQSGAEVQKPGASVKVSCKASRYSFTSYYMHWVRQAPGQGLEWMGIINPKSGSTSYAQKFQGRVTMTRDTSTSTVYMELSSLRSEDTAVYYCARDGYGSSSRCLQLWGQGTLVTVSS VL: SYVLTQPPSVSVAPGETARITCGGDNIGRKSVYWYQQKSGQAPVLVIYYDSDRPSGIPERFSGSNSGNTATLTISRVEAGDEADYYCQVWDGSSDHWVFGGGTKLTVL
Reply: 6.09
